Measured growth inhibition, listed per entry.
- test-method-notes: NCI Yeast Anticancer Drug Screen. Data for the bub3 strain (AID 167)
- experimental-conditions: S. cerevisiae bub3 mutant strain, at 50.0 µM, hits give high values
This is part of a sample that, as a whole, favours compounds with a hit. Of some 79,000 tested, about 15% had one in any assay. Activity calls are given as the source filed them. Cut-off read from the data, not from the text of the source: active = growth inhibition above about 70%; inactive = the rest.
quantity-kind: growth inhibition

>  <smiles-record>
O=C(NC1CCCCC1)c1ccc(Cl)cc1

>  <result>
-17.6% (inactive)

$$$$
>  <smiles-record>
CC(C)Sc1ncnc2nc[nH]c12

>  <result>
18.9% (inactive)

$$$$
>  <smiles-record>
O=[N+]([O-])c1ccc2[nH]c(=S)n(/C=C(/c3ccc(Cl)cc3Cl)S(=O)(=O)Cc3ccc(Cl)cc3Cl)c2c1

>  <result>
-3% (inactive)

$$$$

---

Measured growth inhibition, listed per entry.
- test-method-notes: NCI Yeast Anticancer Drug Screen. Data for the mlh1 rad18 strain (AID 175)
- experimental-conditions: S. cerevisiae mlh1 rad18 strain growth inhibition; at 50.0 µM; hits give high values
The panel holds about 79,000 compounds, 15% with a hit somewhere; the sample as a whole holds those more often.

>  <molecule>
Clc1ccc(/C=C/c2ccccn2)cc1

>  <unit-of-measure>
%

>  <growth inhibition>
28.4

$$$$
>  <molecule>
CN(C)c1ccc2nc3ccc(=[N+](C)C)cc-3oc2c1

>  <unit-of-measure>
%

>  <growth inhibition>
-12

$$$$
>  <molecule>
CCCCCC(=O)OCCC1CCCCC1

>  <unit-of-measure>
%

>  <growth inhibition>
31.2

$$$$
>  <molecule>
C=C(C)[C@@H]1CC[C@]2(CO)CC[C@]3(C)[C@H](CC[C@@H]4[C@@]5(C)CC[C@H](O)C(C)(C)[C@@H]5CC[C@]43C)[C@@H]12

>  <unit-of-measure>
%

>  <growth inhibition>
29.1

$$$$
>  <molecule>
Nc1ccc(F)c(Cl)c1F

>  <unit-of-measure>
%

>  <growth inhibition>
-1.8

$$$$
>  <molecule>
CC1CCC(C(C)(C)[N+](C)(C)C)CC1 (configuration not stated)

>  <unit-of-measure>
%

>  <growth inhibition>
36.4

$$$$
>  <molecule>
Cc1ccc(NC(=O)c2ccccc2Cl)cc1

>  <unit-of-measure>
%

>  <growth inhibition>
6.05

$$$$
>  <molecule>
CC(C)N1CC(=O)N2CSCC2C1=O (configuration not stated)

>  <unit-of-measure>
%

>  <growth inhibition>
3.25

$$$$
>  <molecule>
Nc1ccc2c(c1)Cc1cc(N)c(N)cc1-2

>  <unit-of-measure>
%

>  <growth inhibition>
5.8

$$$$
>  <molecule>
CN1CCN(C(=S)S)CC1

>  <unit-of-measure>
%

>  <growth inhibition>
5.15

$$$$
>  <molecule>
OC(CBr)CCBr (configuration not stated)

>  <unit-of-measure>
%

>  <growth inhibition>
-32

$$$$
>  <molecule>
O=Cc1ccc(O)c(O)c1

>  <unit-of-measure>
%

>  <growth inhibition>
18.9

$$$$
>  <molecule>
O=C1C=C[C@H](O)[C@@]2(CO)O[C@@H]12

>  <unit-of-measure>
%

>  <growth inhibition>
11.7

$$$$
>  <molecule>
CC(=O)N(C)N=Nc1ccc(C)cc1

>  <unit-of-measure>
%

>  <growth inhibition>
-4.05

$$$$
>  <molecule>
BrCc1cccc(C[P+](c2ccccc2)(c2ccccc2)c2ccccc2)c1

>  <unit-of-measure>
%

>  <growth inhibition>
41

$$$$
>  <molecule>
Cc1ccc(OC(=O)c2ccccc2)cc1

>  <unit-of-measure>
%

>  <growth inhibition>
-14.6

$$$$
>  <molecule>
Nc1ncc([N+](=O)[O-])cn1

>  <unit-of-measure>
%

>  <growth inhibition>
-9.45

$$$$
>  <molecule>
S=CN1CCCCC1

>  <unit-of-measure>
%

>  <growth inhibition>
-8.75

$$$$
>  <molecule>
O=C(O)CCCCCNC(=O)OCc1ccccc1

>  <unit-of-measure>
%

>  <growth inhibition>
9.3

$$$$
>  <molecule>
CCOc1ccc(C(=O)NCC(C)C)cc1

>  <unit-of-measure>
%

>  <growth inhibition>
-13.7

$$$$
>  <molecule>
Nc1ncnc(Nc2ccccc2)n1

>  <unit-of-measure>
%

>  <growth inhibition>
7.1

$$$$
>  <molecule>
CS(=O)(=O)c1ccc(/C=C\C(=O)O)cc1

>  <unit-of-measure>
%

>  <growth inhibition>
19.2

$$$$
>  <molecule>
Cc1[nH]c(=S)[nH]c(=O)c1C

>  <unit-of-measure>
%

>  <growth inhibition>
-1.7

$$$$
>  <molecule>
Cc1ccc(N)c(S(=O)(=O)O)c1

>  <unit-of-measure>
%

>  <growth inhibition>
-13.2

$$$$
>  <molecule>
ClCC(Cl)C1CCC(Cl)C(Cl)C1 (configuration not stated)

>  <unit-of-measure>
%

>  <growth inhibition>
19.8

$$$$
>  <molecule>
COc1cc(C(=O)O)c(O)c(C(C)(C)C)c1

>  <unit-of-measure>
%

>  <growth inhibition>
8.5

$$$$
>  <molecule>
C1CCc2onc(-c3noc4c3CCCCC4)c2CC1

>  <unit-of-measure>
%

>  <growth inhibition>
2.8

$$$$
>  <molecule>
OC1Cc2ccccc2C1

>  <unit-of-measure>
%

>  <growth inhibition>
-18.6

$$$$
>  <molecule>
S=c1nc2[nH]c3ccccc3c2n[nH]1

>  <unit-of-measure>
%

>  <growth inhibition>
6.45

$$$$
>  <molecule>
CCOC(=O)CNC

>  <unit-of-measure>
%

>  <growth inhibition>
-10.9

$$$$
>  <molecule>
C=C(C)COc1ccc(C(C)(C)C)cc1

>  <unit-of-measure>
%

>  <growth inhibition>
12

$$$$
>  <molecule>
S=c1nc(-c2ccccn2)c(-c2ccccn2)n[nH]1

>  <unit-of-measure>
%

>  <growth inhibition>
-53.7

$$$$

Hey, just so you know, these numbers are from PubChem BioAssay (NCI).
